Tested on: SF-539 CNS
Assay: NCI-60 one-dose screen, 48 h
Conditions: 10 µM
About 83,000 compounds went through this panel and 20% of them were active in at least one assay; those are over-represented in the sample as a whole. Calls of active or inactive are those of the source. Rule for the calls: active = growth percent below 10; inactive = the rest.
Returns: one label drawn from yes = active, no = inactive

Worked cases, answers included:
1. O=C(Nc1cccc(-n2cc(-c3ccncc3)c(-c3ccc(O)c(Cl)c3)n2)c1)Nc1cccc(C(F)(F)F)c1 ... yes
2. COC(=O)C(C(C[N+](=O)[O-])c1ccccc1)=P(c1ccccc1)(c1ccccc1)c1ccccc1 (centres undefined) ... no
3. COc1cc(-c2cc(/C=C/C(=O)c3ccc(F)c(F)c3)[nH]n2)cc(OC)c1OC ... no

Now for another entry.
Could you please tell me the result logged for CCN(CC)Cc1cc(Nc2ccnc3cc(Cl)ccc23)ccc1OC in this assay?
no

---

System: SNB-19 CNS
Experiment: NCI-60 one-dose screen, 48 h (100 = growth as untreated, 0 = no growth, -100 = all killed)
Settings: 10 µM
The panel holds about 83,000 compounds, 20% with a hit somewhere; the sample as a whole holds those more often.
READOUT_TYPE: growth (%)
Kindly provide the numeric value in % only, without the unit symbol.

Consider the reported growth for these molecules:
1) COc1ccc2c(c1)C(=O)c1c-2c(OCCN(C)C)nc2ccccc12 ... 42.9
2) Nc1nc(N)c(NC(=O)CNc2ccc(C(=O)O)cc2)c(N)n1 ... 105

Kindly consider the entry below.
Request body: readout growth, system SNB-19 CNS, query COc1ccc(S(=O)(=O)NCCCNc2nccc(-c3c(-c4ccc(F)cc4)nc4sccn34)n2)cc1 . Return the value.
99.1

---

System: PC-3 prostate
Assay: NCI-60 one-dose screen, 48 h
Settings: 10 µM
The panel holds about 83,000 compounds, 20% with a hit somewhere; the sample as a whole holds those more often. Calls of active or inactive are those of the source. How the source made its calls: active means growth percent below 10; inactive means the rest.
Returns: one label drawn from true (1) = active, false (0) = inactive

Worked cases, answers included:
1) COc1ccc(Cl)cc1C(=O)Nc1nc2ccc(Cl)cc2s1 ... false (0)
2) COc1ccc(/C=C2/CN(C(=O)c3ccccc3F)C/C(=C\c3ccc(OC)cc3)C2=O)cc1 ... false (0)
3) CN(C)C=Nc1cc(Cl)ccc1Cl ... false (0)

Could you please tell me the result logged for Cc1cc(=O)[nH]c(N/N=C/c2ccccc2O)n1 in this assay?
false (0)

Could you please tell me the result logged for Nc1c(C(=O)Nc2cccc3ccccc23)sc2nc3c(cc12)C(=O)CCC3 in this assay?
false (0)

Could you please tell me the result logged for c1ccc(CP(Cc2ccccc2)c2ccccc2)cc1 in this assay?
false (0)

Could you please tell me the result logged for CN(Cc1ccccc1)Cc1ccc([N+](=O)[O-])cc1I in this assay?
false (0)

Could you please tell me the result logged for COc1cc(-c2cc(/C=C/C(=O)c3ccc(Cl)c(Cl)c3)[nH]n2)cc(OC)c1OC in this assay?
false (0)

Could you please tell me the result logged for Cc1[nH]nc2c1C(c1cnn(C)c1)C(C#N)=C(N)O2 (stereo not drawn) in this assay?
false (0)

---

Below, each of the molecules is paired with its reported growth value.
System: HS 578T breast
Test: NCI-60 one-dose screen, 48 h (100 = growth as untreated, 0 = no growth, -100 = all killed)
Details: 10 µM
Compounds without any hit were thinned out: in the full panel of roughly 83,000, 20% have a hit.
Kindly provide the numeric value in % only, without the unit symbol.

Consider the reported growth for these molecules:
1) COc1cc(-c2cc(-c3cc4c([nH]c5ccccc54)c(-c4cc(OC)c(OC)c(OC)c4)n3)cc(-c3ccccc3)n2)cc(OC)c1OC ... 52.5
2) O=C(N/N=C/c1ccccc1O)C(O)(c1ccccc1)c1ccccc1 ... 74
3) O=C(CCCCC(=O)Nc1ccc2c(c1)/C(=C/c1ccc[nH]1)C(=O)N2)NO ... 72.4
4) O=C(Nc1ccc(CN2CCc3nc4cc(O)c(O)cc4cc32)cc1)c1ccc(Cl)c(Cl)c1 ... 102

Kindly consider the entry below.
Which growth is reported for this molecule? COc1ccc2c(c1)sc1nc(-c3ccccc3)c(-c3ccsc3)n12
3.75

---

System: EKVX NSCLC
Assay: NCI-60 one-dose screen, 48 h (100 = growth as untreated, 0 = no growth, -100 = all killed)
Settings: 10 µM
The panel holds about 83,000 compounds, 20% with a hit somewhere; the sample as a whole holds those more often.
Below, each of the compounds is paired with its reported growth value.
Kindly provide the numeric value in % only, without the unit symbol.

Consider the reported growth for these compounds:
1) CCN(CC)CCSCCCNc1c2ccc(Cl)cc2nc2ccc(OC)cc12 ... -20.2
2) CC(C)(C)NC/C(=C\c1ccccc1)C(=O)c1ccccc1 ... 24.7
3) NC1=NC(=O)C(c2ccccc2)(c2ccccc2)S1 ... 107
4) CCN(CC)Cc1cc(Nc2ccnc3cc(Cl)ccc23)ccc1OC ... 97.2
5) CC(=O)OCc1cc(-c2nc3ccccc3[nH]c2=O)nn1-c1ccc(Cl)cc1 ... 104
6) CCCCCCCCCCCCCC[n+]1ccc(C(N)=O)cc1 ... 1.08

Kindly consider the entry below.
Which growth is reported for this compound? C=C(NC(=O)C(=C)NC(=O)c1csc(C2=NC3c4csc(n4)C4NC(=O)c5csc(n5)C(C(C)(O)C(C)O)NC(=O)C5CSC(=N5)/C(=C/C)NC(=O)C(C(C)O)NC(=O)c5csc(n5)C3(CC2)NC(=O)C(C)NC(=O)C(=C)NC(=O)C(=C)NC(=O)C(C(C)C)NC2C=Cc3c(C(C)O)cc(nc3C2O)C(=O)OC4C)n1)C(N)=O (configuration not stated)
42.2

---

Test system: NCI/ADR-RES ovarian
Assay: NCI-60 one-dose screen, 48 h
Details: 10 µM
This is part of a sample that, as a whole, favours compounds with a hit. Of some 83,000 tested, about 20% had one in any assay. Active and inactive are the calls of the source. How the source made its calls: active means growth percent below 10; inactive means the rest.
Returns: one label drawn from active, inactive

1. COc1cc(/C=N/NC(=O)c2ccccc2Nc2ccnc(C(F)(F)F)c2)ccc1O ... inactive

Could you please tell me the result logged for COc1ccc(-c2nc(-c3nc4cc(Cl)c(Cl)cc4[nH]3)c3ccccn23)cc1 in this assay?
inactive

Could you please tell me the result logged for O=C1OCC2=C1C(c1ccc(Cl)c(Cl)c1)c1cc3c(cc1N2CCO)OCCO3 (stereo not given) in this assay?
active

Could you please tell me the result logged for N#Cc1cccc(OCc2nc(N)nc(N)c2-c2ccc(Cl)c(Cl)c2)c1 in this assay?
inactive

---

Test system: UACC-257 melanoma
Test: NCI-60 one-dose screen, 48 h (100 = growth as untreated, 0 = no growth, -100 = all killed)
Settings: 10 µM
This is part of a sample that, as a whole, favours compounds with a hit. Of some 83,000 tested, about 20% had one in any assay.
Below, each of the compounds is paired with its reported growth value.
Kindly provide the numeric value in % only, without the unit symbol.

Consider the reported growth for these compounds:
1) COc1ccc(Cn2c(C(N)=O)cc3c2-c2nc(N)ncc2CCC3)cc1 ... 102
2) ClC(Cl)(Cl)c1nc2nccnc2[nH]1 ... 108
3) O=C(O)CC(Cl)C(Cl)CC(=O)O (stereo unspecified) ... 92.2
4) COc1cccc(Cn2c(-c3nonc3N)nc3ccccc32)c1 ... 49.2
5) Nc1c(C(=O)Nc2ccccc2)sc2nc3c(cc12)CCCC3 ... 59.2

Kindly consider the entry below.
Which growth is reported for this compound? COc1ccc(/C(=C2/O[C@@H]([C@H]3COC(C)(C)O3)[C@H]3OC(C)(C)O[C@@H]23)c2cc(OC)c(OC)c(OC)c2)cc1O
126

---

Below, each of the compounds is paired with its reported growth value.
Tested on: HS 578T breast
Test: NCI-60 one-dose screen, 48 h (100 = growth as untreated, 0 = no growth, -100 = all killed)
Settings: 10 µM
The panel holds about 83,000 compounds, 20% with a hit somewhere; the sample as a whole holds those more often.
Kindly provide the numeric value in % only, without the unit symbol.

1) CN(C)CCN1C(=O)c2cccc3cc(N)cc(c23)C1=O ... 57.6
2) CN(C)CCCn1c(=O)c2ccccc2c2cnc3[nH]ccc3c21 ... 24.8
3) CCCC1(CC(=O)O)OCCc2c1[nH]c1ccccc21 (configuration not stated) ... 101
4) Cc1c(Cl)cccc1NC(=O)c1sc2nc3c(cc2c1N)C(=O)CCC3 ... 17.1
5) Cc1cc(N(CCCNc2ccnc3cc(Cl)ccc23)Cc2ccc3c(c2)OCO3)nc(N2CCCCC2)n1 ... -32.4

Which growth is reported for this compound? CCN(CC)CCOc1nc2ccc(OC)cc2c2c1-c1ccc(OC)cc1C2=O
10.3

Which growth is reported for this compound? C#Cc1ccc(-n2c(/C=C/c3ccc(C(F)(F)F)cc3)nc3ncccc3c2=O)cc1
72.4

Which growth is reported for this compound? CCN(CC)CCSCCN(CC)CC
106

Which growth is reported for this compound? CCCCCCCC(C)NCCO (configuration not stated)
99.4

Which growth is reported for this compound? CCOCC(=O)C(C#N)c1ccc(Cl)c(Cl)c1 (configuration not stated)
100

Which growth is reported for this compound? CCCC#CCN(CC)CC
105

Which growth is reported for this compound? Nc1ccc2cc(S(=O)(=O)O)cc(O)c2c1N=Nc1ccc(F)cc1
111
